# procedure.details: self-splicing fitness, log relative to wild type (ln ratio); higher = more splicing; Tetrahymena group I intron in knt gene, E. coli kanamycin selection, DiMSum; sequences stand for … in CUCUCU…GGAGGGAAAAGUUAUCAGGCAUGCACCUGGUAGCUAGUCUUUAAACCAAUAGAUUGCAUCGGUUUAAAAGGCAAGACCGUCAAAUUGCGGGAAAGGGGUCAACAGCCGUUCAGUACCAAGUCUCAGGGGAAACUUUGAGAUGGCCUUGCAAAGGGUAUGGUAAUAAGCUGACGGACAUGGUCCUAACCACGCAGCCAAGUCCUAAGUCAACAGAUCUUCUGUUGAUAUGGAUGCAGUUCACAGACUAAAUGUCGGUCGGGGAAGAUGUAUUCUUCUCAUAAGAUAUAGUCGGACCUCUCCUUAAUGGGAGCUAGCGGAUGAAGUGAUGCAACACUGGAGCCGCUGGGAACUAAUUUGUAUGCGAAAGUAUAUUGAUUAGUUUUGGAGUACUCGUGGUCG;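 also: selection with 25 µg/mL kanamycin versus none on LB agar overnight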
# condition.context: 37 °C
measured.property: self-splicing fitness (ln)

> print(dat)
         sequence.record           measured.property  numeric.result
 1  CAUAAGCAAUAUUACGGCUG  self-splicing fitness (ln)          0.0915
 2  UAGAAGCAAUAUUACGGGAU  self-splicing fitness (ln)           -2.36
 3  CGUCAGCAAUAUUACGAGGA  self-splicing fitness (ln)           -2.38
 4  GCAUAGCAAUAUUACGGAGU  self-splicing fitness (ln)           -1.86
 5  GUAGAGCAAUAUUACGCGUA  self-splicing fitness (ln)          -0.093
 6  GUUGAGCAAUAUUACGAAAG  self-splicing fitness (ln)           0.317
 7  CUUUAGCAAUAUUACGAUAC  self-splicing fitness (ln)           -2.42
 8  CAUCAGCAAUAUUACGUUUU  self-splicing fitness (ln)            -1.8
 9  AGUCAGCAAUAUUACGGUUG  self-splicing fitness (ln)            -2.8
10  GGCGAGCAAUAUUACGGUCG  self-splicing fitness (ln)           -0.98
11  GGCCAGCAAUAUUACGAGUC  self-splicing fitness (ln)           -1.24
12  ACCCAGCAAUAUUACGGAGU  self-splicing fitness (ln)            -1.8
13  UUUAAGCAAUAUUACGUCGA  self-splicing fitness (ln)          -0.225
14  CAAAAGCAAUAUUACGUCAC  self-splicing fitness (ln)           -2.06
15  CAAAAGCAAUAUUACGAGGU  self-splicing fitness (ln)           -2.91
16  CGAGAGCAAUAUUACGGGUA  self-splicing fitness (ln)           -2.23
17  GAGUAGCAAUAUUACGGGGC  self-splicing fitness (ln)           -1.98
18  UUAAAGCAAUAUUACGUCGC  self-splicing fitness (ln)           -2.18
19  GACGAGCAAUAUUACGCGAU  self-splicing fitness (ln)           -2.36
20  CCAGAGCAAUAUUACGACCU  self-splicing fitness (ln)           -3.29
21  GGAUAGCAAUAUUACGUUAC  self-splicing fitness (ln)           -1.26
22  UUGUAGCAAUAUUACGAGGC  self-splicing fitness (ln)           -1.77
23  GGGCAGCAAUAUUACGGACU  self-splicing fitness (ln)          -0.255
24  UAAGAGCAAUAUUACGGCUG  self-splicing fitness (ln)          -0.424
25  CGAUAGCAAUAUUACGUCCU  self-splicing fitness (ln)          -0.541
26  AUAGAGCAAUAUUACGCGAU  self-splicing fitness (ln)              -2
27  UCAGAGCAAUAUUACGAUCG  self-splicing fitness (ln)           -2.39
28  GGCGAGCAAUAUUACGAACG  self-splicing fitness (ln)           0.152
29  UAUCAGCAAUAUUACGACCG  self-splicing fitness (ln)           0.738
30  GGUUAGCAAUAUUACGAACA  self-splicing fitness (ln)           0.626
31  GUCGAGCAAUAUUACGCCCA  self-splicing fitness (ln)          -0.376
32  CACGAGCAAUAUUACGACUG  self-splicing fitness (ln)          -0.773
33  GGGAAGCAAUAUUACGAGAU  self-splicing fitness (ln)            -2.8
34  CCUUAGCAAUAUUACGGAUG  self-splicing fitness (ln)          -0.271
